In this section, each of the molecules is paired with its reported inhibition.
test: NOD1 signaling inhibitors, primary screen, cell-based, luminescence, uHTS (AID 1578); details: NOD1-driven NF-kB luciferase reporter cells, at 4 µM, active compounds read high;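 note: HEK-293T reporter cells stimulated with the NOD1 agonist gamma-tri-DAP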
Among all 290,000 compounds or so, about 3,000 (1%) were called active. The full list was thinned out, with actives kept by preference.
Reply numerically in %, unit not repeated.

{"Molecule": "COc1ccc(CCNC(=S)NC(=O)c2cccc(Cl)c2)cc1OC", "inhibition [%]": -2.1}
{"Molecule": "Cc1ccc(-n2nnc(-c3nccs3)n2)cc1", "inhibition [%]": 77.8}
{"Molecule": "CCCCCCc1cc2cc(S(=O)(=O)c3ccc(C)cc3)c(=O)oc2cc1O", "inhibition [%]": -36.3}
{"Molecule": "Clc1ccc(-n2nnc(-c3cccnc3)n2)cc1Cl", "inhibition [%]": -12.2}

Enquiry: Report measured inhibition; entry is Cc1cc(C(=O)CCl)c(C)n1CC1COc2ccccc2O1 (stereo unspecified)
Return: 51.3

Enquiry: Return the recorded inhibition value; entry: C=CCNC(=S)Nc1ccc(OC(F)F)c(Cl)c1
Return: -16.4
